Cited source: the NTF2 design screens of Basanta et al. (2020)

Assay Summary: protease stability score; higher = more stable; yeast display proteolysis, trypsin and chymotrypsin;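 also: log10 excess protease needed over predicted unfolded state with 0 meaning unfolded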
# Lookup of reported protease stability score keyed by entry
Just the number, please, no unit attached.

[
  {
    "Sequence Chain": "EDEEAEKLSEIQRTGDEERIARNADPNVRVNVGDKRVHGREHLVSIAKRLSKNVDSLEIKHVEIQGERMVVRFVMQVNGKHIHAEMEIQMSNGRITSRNQRYTSEDVEQNWRDAVD",
    "protease stability score": 0.255
  },
  {
    "Sequence Chain": "DEEEQKVFEKVQDAIRDGDEDTVKKLMDENAKVTIGDKDLHGSDNIARHVHKLHKDMRISIDIKHIDVTGDKIRVHARVEVDKNGKPKHYDVDFTARAKNGKVKTLNYREDS",
    "protease stability score": 0.694
  },
  {
    "Sequence Chain": "DEEDLKRVVDILHQNDPDQMIEMADENVKLEVGDKEFHGREEFSKFQRRIRDAVDHVEVKSLSHHNGRINMTFVLQINGRRIEFSAVVRVHNGKIKSMKVNATNEDDQSRFESQLS",
    "protease stability score": 0.192
  },
  {
    "Sequence Chain": "DSREEAKRFFTKMVEIFKTGDEDEAHEMADKNARVHVGDKTVRGREQYTRKMSKEVKQVDHAEYRIQDVEVQGEHIRITFVRRIDTNGRTNEQHLVMEAEKHNGRIYIKQIHES",
    "protease stability score": -0.159
  },
  {
    "Sequence Chain": "EEEAFDRAQQFVRAMETGDTTKLEQLADKDVRFDVGDKEVQGREEYSKTVHELKKEMRFRYEFKHYTVTGDEVDARVEFEYEHNGQPRRTQAKVTFIFQGDKLESINMKESQ",
    "protease stability score": 0.146
  }
]

Need protease stability score, item DEEKKARRWFESFIEVFRSNDPDQAKKLADPNVRAEYGDKHYHGREEFMKHFITLAERVDHVDIELHSLRIDGNRIVMNMRYRLRYNGRTESNEVTVILVIKNGKLHIQEVREG
1.41

----------
Assay Summary: protease stability score; higher = more stable; yeast display proteolysis, trypsin and chymotrypsin;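 also: log10 excess protease needed over predicted unfolded state with 0 meaning unfolded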
Property: protease stability score
Just the number, please, no unit attached.

Previously resolved entries follow.
[
  {
    "Sequence Chain": "DEKKIKDLARRVMQYYVSGNTEEVEKLGKDDVQVHFGDQTYHGVEQVKKVVKEFKEYGVELQLKDIQYDGDRADAEVEVHAGGHTWKFTVTVQLDGGKVDNLTFHVSDEAKKAIEHG",
    "protease stability score": 0.982
  },
  {
    "Sequence Chain": "DDEKLTTVLKELMKAFEKGDNKKFVDLLDKDVTIDYGDKKVHGRDEATEVFHKIRRQVDHVQVSDMKFENGRASIRATLHFNGKNMEVTFEAVIKNGRIKHAQVEVRDPDELRKMES",
    "protease stability score": 1.03
  },
  {
    "Sequence Chain": "EEHLKHVVEELWKAMQTGDEDKIRRNADPNAHFSIGDKVIQGRERFAQDVRQTYDEIRVDIKIHRMNIQGEKVKVRFTFEQKVNGKPRSDENSAENTLHNGKVEEMNITIDPDKQRKFES",
    "protease stability score": -0.43
  },
  {
    "Sequence Chain": "DEKEEAHRALTAMHKMMTGDFKEVMKNADENVHVEIGDKEFHGREDLHDFAREIQERVDDFRVSSVTAKGDSAVLNVRQDYNGRNERVRLEVQVSNGKIKHVRFQTG",
    "protease stability score": -0.341
  },
  {
    "Sequence Chain": "DSERAKQWTHFLRLMETGNEEDLSKMADPNARFQVGDETYKGKDDVTKWARTVKTHMRVTYKRLNNDDEEGHARIEADYQYDHNGKPEEDKNSLVLSFHNGQIKEVVIHHVS",
    "protease stability score": 0.164
  }
]

Pending sequence:
Need protease stability score, item DREDESELAMRAAVNAATGNEDEVSKNADPNVRAIYGDKNYDGTENMKDVIRQVRERIDHIELKSFEQHGDHAVARAEAKHNGDESTLVVTARAENGRVKSMRFEIR
-0.275

----------
Assay Summary: protease stability score; higher = more stable; yeast display proteolysis, trypsin and chymotrypsin;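 also: log10 excess protease needed over predicted unfolded state with 0 meaning unfolded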
# Lookup of reported protease stability score keyed by entry
Just the number, please, no unit attached.

[
  {
    "Sequence Chain": "DEEAQKRAEELIRILQTGDPDKLMEMFDKDAHATIGDQTVRGREDMRRRQKELKETMDVKLDITDVKVTGEKIDIRIKATFNYNGQPAEDTIVFIIQQHNGRVQRFEVRIDEDVLRQLKK",
    "protease stability score": 0.184
  }
]

Need protease stability score, item DDHNIQRLKQFLDDWERGDPDKLKDLVDPNVEFRIGEREVHGMDHWATQLTEERRDQRFQLKDMRVQERPGRVEVRLDYEQDHNGKPERQIVKFVAQATNGELKWVNWTRDS
-0.017

// same read-out, input: DEDKTAEQVAETIQKIWEKGDPTKMEKLFDPNASINVGEKTVKGREKIFTEAKKLMKEADHVRVTVQHVEARGDHVIVRFTFTLHVNGKNRKHEVEINAEDKNGHLRARDIKMR
0.351

// same read-out, input: DNEKALERAEEAARAVARGNEDELRKLAPPDVSAQYGDHRINGMDQVVEQIKEMRRAVDHIKIQTIRKNGNSVTLTVELTYNGQQMHMHVEVEVHNGELKHVRMHVTDEERWRRQES
0.855

// same read-out, input: DDRQRRQFAERVQKVLRTGDPERFMQMADENVQVHVGDQTYRGRDQAEKNMREFVKRVDHLQIISFHFEGNHAVIVFIAHFDGKEATIEMVIRFSNGHIKEMKINPDQIRQMRS
1.21

// same read-out, input: DDELHKLAEEFVTALQKGDPDRANSLFDPNAKFVVGDEVLHGREDFEKWLDELKHQMRIQFESVKIDKRPGRIIIDNVFRVHVNGKPDQIRIEIDIQVHNGKIKEVIYRMDPDKFREVMS
1.3

// same read-out, input: DDEKTRDLLRKAMRAFITGDPDTLRHLFDKDARARYGDKEVRGREQIQHQLREIRSTVDHIDVKDMEVQGNHATLSLSLVVNGREVKVRVKIVVHNGRAQSVTMDPHDIRKLNS
1.29

----------
# Lookup of reported protease stability score keyed by entry
Assay Summary: protease stability score; higher = more stable; yeast display proteolysis, trypsin and chymotrypsin;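 also: log10 excess protease needed over predicted unfolded state with 0 meaning unfolded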

Previously resolved entries follow.
[
  {
    "Sequence Chain": "DEQEKAERLAKTAVEAYETNDPEVMRRLLPPDAEVRVGDKEIHGREENSRQVQRELDRVDRVQVSMKTVHVDGNKLNVVLELRVEHDGETDTREIVIIFDVRNGTIQAQEINIG",
    "protease stability score": -0.05
  },
  {
    "Sequence Chain": "DEEKYKRLFRKVFEAAIKGDEEKVKKFGKPNVKYEYADKQYEGPEAMKHVVDLAKKVGAEVKTREQEVKGNTAKAKFQYKLGDRTVQTTVEVKYEGDKVKEARVKLTDEVKKILHQG",
    "protease stability score": 0.065
  },
  {
    "Sequence Chain": "DRERQKKNLKDFVDALTKGDPDQVVKQFDKDARVRVGDKQVEGRDQIREFAKEWSKHVDRFRITEMRVHNGRLDIQAEQHHNGRKRRIQVEVNWHNGQIKNMQWTHG",
    "protease stability score": 1.4
  },
  {
    "Sequence Chain": "DDSKERSNLEKFAKALETGDPKKLQQQLDPDARMQIGDKTYHGRHDMEKWLEEFNRQADHYQIDTFDQHNGTLNIQMRMNINGNTVSMTVNVVAKNGRVKHVTFDPDVWRQLES",
    "protease stability score": 0.809
  },
  {
    "Sequence Chain": "DEEAFKVMEKLEEDIHTGSEENIEKLFDPNARLRVGDHVVDGRHNIAKHVRDVRESARLEFSVRTYDMQGEKVRLDVTWRREHNGQPESATATVVAEIHNGRIVSVTVDERK",
    "protease stability score": 0.801
  },
  {
    "Sequence Chain": "DEEANKIAKKFQEALRKGDENRLKELVDPNVRMEYGDHSIHGREELEKDVRKKKRDMRVKITLDHMEDNGSEVTAKVRWTQEHNGTPDSTHFSARFDFTDGRLKHYDQNDSG",
    "protease stability score": -0.009
  }
]

Need protease stability score, item DEHEAKKMSEMFKNLATGNPDTAKRQFDKDASVQIGDKVVHGREHLSRTLKRRRDQIRVVVEDVKVTVNGDKAEIQVIFSWEHNGEPRRSVYFATVHWHNGNVKKVTVTEQS
-0.121

// same read-out, input: DEEAQELAERVFKALQTGDPDTLVKNMDPNVRLDVGDKKIQGREEAKKHADRLRHEQKVEYDSYEVRVHDGRVVVRLHWKFTVNGHPRTLTLTVEMKAHNGKVKHFSQRVPEDVLRKMKS
-0.049

// same read-out, input: DEEKILQDLIKTYQDLAKTNDFESMAKEADEDAHVNIGDKEVHGRESLNKHFRQLQKEVDHVEVDVRDYRVHGDKFEIKFVVNNQRDGQTDRKTVRIEYVQNGDKVRAKSFTTG
-0.176

// same read-out, input: DEETEDKARRFVEAFHTGDPKNINRLMDKDARMKYGDTTVHGRHQIDKWIKELKDEIRIELDRVEIRADNGRVTAELDMVFDVNGKPVKHTLVFIFQFHNGRMHEVKIRIDEDVLRKLKR
0.746

// same read-out, input: DEEVEDLYQKIKRAQETGDHKQLRDNFDEEVRIKVGDKTIHGMTRAAKKITREWRHINIDVKVEHVQISNGRLRVRYRFVENDNGKPKTTAANFSMEAHNGRVKHVHVQDDS
0.112

// same read-out, input: DESQAEALHEVLQAERTNDPKKVEEQMDPHVNIVIGDKTYHGRDRIREDVKRKIDEMRVHVESVRFDEQGDKARAEATLRYNHNGRPSSKKIVIQMKAENGQIKTMRVHDTK
-0.646

// same read-out, input: EERQQELAKTFMEAVQSNDTTQLKRMFDKHAKVTVGDKTVSGREDASKWLSKLHKESRVQLRDVKVEVSGNKIDIKVRFEVQHNGKPREVTREMEMTFHNGKIKDLRATRTE
0.394

// same read-out, input: DEENQKQIKKIWHAWEKGDEQKAQDMVDPNVNIQVGDKHISGQDSLREDLRRKRHEMRVRVRFHDINIDENHISVKIEVLNEKNGRPSTKVVVFEATVHNGKIKSMEFRDDD
0.494
